# Tested on: Bacillus cereus
# assayDetails: Antimicrobial activity against Bacillus cereus at 1 umol/spot after 18 hrs by TLC-bioautographic method
# Assay type: functional
The source made the active and inactive calls. No cut-off for these calls is given here.

{"molecule": "Nc1nc(-c2ccc(Cl)cc2)cc(-c2ccc(Nc3nc(Nc4ccccc4)nc(Nc4ccccc4)n3)cc2)n1", "assayTarget": "Bacillus cereus", "inhibition zone (IZ)": "0.09 millimeter"}
{"molecule": "COc1ccccc1-c1cc(-c2ccc(Nc3nc(Nc4ccccc4)nc(Nc4ccccc4)n3)cc2)nc(N)n1", "assayTarget": "Bacillus cereus", "inhibition zone (IZ)": "inactive"}
{"molecule": "CC(=O)N1N=C(c2ccc(Nc3nc(Nc4ccccc4)nc(Nc4ccccc4)n3)cc2)CC1c1ccc(Cl)cc1 (centres undefined)", "assayTarget": "Bacillus cereus", "inhibition zone (IZ)": "0.08 millimeter"}
{"molecule": "CC(=O)N1N=C(c2ccc(Nc3nc(Nc4ccccc4)nc(Nc4ccccc4)n3)cc2)CC1c1ccc([N+](=O)[O-])cc1 (centres undefined)", "assayTarget": "Bacillus cereus", "inhibition zone (IZ)": "0.1 millimeter"}
{"molecule": "N#Cc1c(-c2ccco2)cc(-c2ccc(Nc3nc(Nc4ccccc4)nc(Nc4ccccc4)n3)cc2)nc1N", "assayTarget": "Bacillus cereus", "inhibition zone (IZ)": "inactive"}
{"molecule": "N#Cc1c(-c2ccc(Cl)cc2)cc(-c2ccc(Nc3nc(Nc4ccccc4)nc(Nc4ccccc4)n3)cc2)nc1N", "assayTarget": "Bacillus cereus", "inhibition zone (IZ)": "inactive"}
{"molecule": "O=C(/C=C/c1ccc(Cl)cc1)c1ccc(Nc2nc(Nc3ccccc3)nc(Nc3ccccc3)n2)cc1", "assayTarget": "Bacillus cereus", "inhibition zone (IZ)": "inactive"}
{"molecule": "N#Cc1c(-c2ccc([N+](=O)[O-])cc2)cc(-c2ccc(Nc3nc(Nc4ccccc4)nc(Nc4ccccc4)n3)cc2)nc1N", "assayTarget": "Bacillus cereus", "inhibition zone (IZ)": "inactive"}
{"molecule": "N#Cc1c(-c2cccs2)cc(-c2ccc(Nc3nc(Nc4ccccc4)nc(Nc4ccccc4)n3)cc2)nc1N", "assayTarget": "Bacillus cereus", "inhibition zone (IZ)": "inactive"}
{"molecule": "COc1ccccc1C1CC(c2ccc(Nc3nc(Nc4ccccc4)nc(Nc4ccccc4)n3)cc2)=NN1C(C)=O (centres undefined)", "assayTarget": "Bacillus cereus", "inhibition zone (IZ)": "inactive"}
{"molecule": "CN[C@@H]1[C@H](O[C@H]2[C@H](O[C@H]3[C@H](O)[C@@H](O)[C@H](N=C(N)N)[C@@H](O)[C@@H]3N=C(N)N)O[C@@H](C)[C@]2(O)C=O)O[C@@H](CO)[C@H](O)[C@H]1O [STREPTOMYCIN]", "assayTarget": "Bacillus cereus", "inhibition zone (IZ)": "0.08 millimeter"}
{"molecule": "Nc1nc(-c2ccc(Nc3nc(Nc4ccccc4)nc(Nc4ccccc4)n3)cc2)cc(-c2ccc([N+](=O)[O-])cc2)n1", "assayTarget": "Bacillus cereus", "inhibition zone (IZ)": "inactive"}
{"molecule": "O=C(/C=C/c1ccc([N+](=O)[O-])cc1)c1ccc(Nc2nc(Nc3ccccc3)nc(Nc3ccccc3)n2)cc1", "assayTarget": "Bacillus cereus", "inhibition zone (IZ)": "inactive"}
{"molecule": "Nc1nc(-c2ccc(Nc3nc(Nc4ccccc4)nc(Nc4ccccc4)n3)cc2)cc(-c2ccco2)n1", "assayTarget": "Bacillus cereus", "inhibition zone (IZ)": "inactive"}
